Here the recorded pKi is given for each entry.
Molecular target: D(2) dopamine receptor (Homo sapiens)
Sequence (P14416 whole entry): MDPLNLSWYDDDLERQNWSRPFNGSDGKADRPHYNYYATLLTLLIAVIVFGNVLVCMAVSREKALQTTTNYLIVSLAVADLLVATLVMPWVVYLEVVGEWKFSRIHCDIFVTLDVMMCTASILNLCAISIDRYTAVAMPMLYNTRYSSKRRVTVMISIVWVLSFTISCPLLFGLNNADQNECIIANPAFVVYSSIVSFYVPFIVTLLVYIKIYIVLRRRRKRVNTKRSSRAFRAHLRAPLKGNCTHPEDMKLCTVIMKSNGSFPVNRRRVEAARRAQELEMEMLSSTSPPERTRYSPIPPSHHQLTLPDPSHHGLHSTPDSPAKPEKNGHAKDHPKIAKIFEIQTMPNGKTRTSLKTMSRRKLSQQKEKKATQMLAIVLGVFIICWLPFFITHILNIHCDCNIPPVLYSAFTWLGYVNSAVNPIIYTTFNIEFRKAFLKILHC
pKi: −log10 of the molar value.

| molecule_smiles | study_system | value_relation_sign | pKi |
| --- | --- | --- | --- |
| c1ccc(-c2[nH]c3ccccc3c2CCN2CCCC2)cc1 | D(2) dopamine receptor (Homo sapiens) | < | 6.00 |
| c1ccc(-c2[nH]c3ccccc3c2CCN2CCCCC2)cc1 | D(2) dopamine receptor (Homo sapiens) | = | 6.05 |
| CCN(C)CCc1c(-c2cccc([N+](=O)[O-])c2)[nH]c2ccccc12 | D(2) dopamine receptor (Homo sapiens) | = | 7.41 |
| CCN(CC)CCc1c(-c2ccccc2)[nH]c2ccccc12 | D(2) dopamine receptor (Homo sapiens) | < | 6.00 |
| C[C@H]1CCCCN1CCc1c(-c2ccccc2)[nH]c2ccccc12 | D(2) dopamine receptor (Homo sapiens) | = | 6.54 |
| CN(C)CCc1c(-c2ccccc2)[nH]c2ccccc12 | D(2) dopamine receptor (Homo sapiens) | < | 6.00 |
| CCN(C)CCc1c(-c2ccco2)[nH]c2ccccc12 | D(2) dopamine receptor (Homo sapiens) | < | 6.00 |
| c1ccc(-c2[nH]c3ccccc3c2CCN2CCC2)cc1 | D(2) dopamine receptor (Homo sapiens) | < | 6.00 |
| C[C@@H]1CCCCN1CCc1c(-c2ccccc2)[nH]c2ccccc12 | D(2) dopamine receptor (Homo sapiens) | = | 7.68 |
